Tested on: KRAS patient-derived spheroids with HUVEC/MSC, viability
Measurement Protocol: Anticancer human tumor 323965-272-R-J2-PDC patient-derived pancreatic carcinoma cell line growth inhibition [KRAS2]
Condition Context: compound 1 µM; active compounds read low
Description: Multicellular complex tumor spheroid response to RAS pathway inhibitors in combination with a targeted agents in patient-derived cell lines with oncogenic KRAS variants from multiple cancer types A high-throughput screen of multi-cell type tumor spheroids was designed to identify active combinations of targeted small molecules and KRAS pathway inhibitors. […] Compounds. […] If the clinical Cmax for an agent had not been determined, the highest concentration tested was 10 microM. […]
Measurement Type: viability, T/C

>>> test_value("COc1cc(Nc2ncc3c(n2)-c2ccc(Cl)cc2C(c2c(F)cccc2OC)=NC3)ccc1C(=O)O")
"51.5% [middle of 5 runs]"
>>> test_value("CC1(C)CCC(CN2CCN(c3ccc(C(=O)NS(=O)(=O)c4ccc(NCC5CCOCC5)c([N+](=O)[O-])c4)c(Oc4cnc5[nH]ccc5c4)c3)CC2)=C(c2ccc(Cl)cc2)C1")
"96.1% [middle of 5 runs]"
>>> test_value("CCN1CCN(Cc2ccc(Nc3ncc(F)c(-c4cc(F)c5nc(C)n(C(C)C)c5c4)n3)nc2)CC1")
"62.6% [middle of 5 runs]"

As a next step, examine the molecule that follows.
Query: What value of viability, T/C has been recorded for this entry: C=CC(=O)N1CCN(c2nc(=O)n(-c3c(C)ccnc3C(C)C)c3nc(-c4c(O)cccc4F)c(F)cc23)C(C)C1 (centres undefined)
Reply: 59.1% [middle of 17 runs]

====

Tested on: KRAS patient-derived spheroids with HUVEC/MSC, viability
Measurement Protocol: Anticancer human tumor 323965-272-R-J2-PDC cell line growth inhibition [KRAS2]; active means viability on the fitted dose curve at most 10% of control; inactive means the rest;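 note: spheroids exposed to agents for 7 days; 100% = DMSO vehicle control viability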
Condition Context: second compound 10 µM; first compound 0.316 µM
Return exactly one item of active, inactive

>>> class("COC(=O)c1ccc2c(C(=Nc3ccc(N(C)C(=O)CN4CCN(C)CC4)cc3)c3ccccc3)c(O)[nH]c2c1 + COc1cc2nc(C)nc(NC(C)c3cc(N)cc(C(F)(F)F)c3)c2cc1OC1CCOC1")
"inactive"
>>> class("CC1COCCN1c1cc(-c2ccnn2C)c2ccnc(-c3ccn[nH]3)c2n1 (stereo not given) + CC1OCC2(CCN(c3cnc(Sc4ccnc(N)c4Cl)c(N)n3)CC2)C1N")
"active"
>>> class("Cn1nccc1Nc1nccc(-c2cc3c(s2)C(C)(C)N(CCN2CCOCC2)C3=O)n1 + COc1cc2nc(C)nc(NC(C)c3cc(N)cc(C(F)(F)F)c3)c2cc1OC1CCOC1")
"inactive"
>>> class("COc1cc2nccc(Oc3ccc(NC(=O)C4(C(=O)Nc5ccc(F)cc5)CC4)cc3)c2cc1OC + CNCc1ccccc1-c1csc(C(C)Nc2nc(C)nc3cc(OC)c(OC)cc23)c1")
"active"

Now turn to the next compound.
Query: Recorded call for COC(=O)c1ccc2c(C(=Nc3ccc(N(C)C(=O)CN4CCN(C)CC4)cc3)c3ccccc3)c(O)[nH]c2c1 + C=CC(=O)N1CCN(c2nc(=O)n(-c3c(C)ccnc3C(C)C)c3nc(-c4c(O)cccc4F)c(F)cc23)C(C)C1 ?
Reply: inactive

====

Test system: KRAS patient-derived spheroids with HUVEC/MSC, viability
Measurement Protocol: Anticancer human tumor 323965-272-R-J2-PDC cell line growth inhibition [KRAS2];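 note: spheroids exposed to agents for 7 days; 100% = DMSO vehicle control viability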
Condition Context: second compound 1 µM; first compound 0.1 µM; active compounds read low
Excerpt: Multicellular complex tumor spheroid response to RAS pathway inhibitors in combination with a targeted agents in patient-derived cell lines with oncogenic KRAS variants from multiple cancer types A high-throughput screen of multi-cell type tumor spheroids was designed to identify active combinations of targeted small molecules and KRAS pathway inhibitors. […] Compounds. […] If the clinical Cmax for an agent had not been determined, the highest concentration tested was 10 microM. […]
Please provide measured viability, T/C for the entries that follow.
Numbers only, in %.

>>> test_value("COC(=O)c1ccc2c(C(=Nc3ccc(N(C)C(=O)CN4CCN(C)CC4)cc3)c3ccccc3)c(O)[nH]c2c1 + COc1cc2nc(C)nc(NC(C)c3cc(N)cc(C(F)(F)F)c3)c2cc1OC1CCOC1")
73.2
>>> test_value("CC(C)NCC(C(=O)N1CCN(c2ncnc3c2C(C)CC3O)CC1)c1ccc(Cl)cc1 (stereo not given) + COc1cc2nc(C)nc(NC(C)c3cc(N)cc(C(F)(F)F)c3)c2cc1OC1CCOC1")
67.3
>>> test_value("CC(=O)OC12COC1CC(O)C1(C)C(=O)C(O)C3=C(C)C(OC(=O)C(O)C(NC(=O)OC(C)(C)C)c4ccccc4)CC(O)(C(OC(=O)c4ccccc4)C21)C3(C)C (stereo not given) + C=CC(=O)N1CCN(c2nc(OCC3CCCN3C)nc3c2CCN(c2cccc4cccc(C)c24)C3)CC1CC#N")
18.2
>>> test_value("CC(C)NCC(C(=O)N1CCN(c2ncnc3c2C(C)CC3O)CC1)c1ccc(Cl)cc1 (stereo not given) + CC1OCC2(CCN(c3cnc(Sc4ccnc(N)c4Cl)c(N)n3)CC2)C1N")
35.3

Query: What value of viability, T/C has been recorded for this entry: COC(=O)c1ccc2c(C(=Nc3ccc(N(C)C(=O)CN4CCN(C)CC4)cc3)c3ccccc3)c(O)[nH]c2c1 + C=CC(=O)N1CCN(c2nc(OCC3CCCN3C)nc3c2CCN(c2cccc4cccc(C)c24)C3)CC1CC#N
Reply: 62.8

Origin of measurements: PubChem BioAssay AID1963869
